Biological target: full-length human PLD2 (Homo sapiens (Human), UniProt O14939)
Sequence (O14939 whole entry): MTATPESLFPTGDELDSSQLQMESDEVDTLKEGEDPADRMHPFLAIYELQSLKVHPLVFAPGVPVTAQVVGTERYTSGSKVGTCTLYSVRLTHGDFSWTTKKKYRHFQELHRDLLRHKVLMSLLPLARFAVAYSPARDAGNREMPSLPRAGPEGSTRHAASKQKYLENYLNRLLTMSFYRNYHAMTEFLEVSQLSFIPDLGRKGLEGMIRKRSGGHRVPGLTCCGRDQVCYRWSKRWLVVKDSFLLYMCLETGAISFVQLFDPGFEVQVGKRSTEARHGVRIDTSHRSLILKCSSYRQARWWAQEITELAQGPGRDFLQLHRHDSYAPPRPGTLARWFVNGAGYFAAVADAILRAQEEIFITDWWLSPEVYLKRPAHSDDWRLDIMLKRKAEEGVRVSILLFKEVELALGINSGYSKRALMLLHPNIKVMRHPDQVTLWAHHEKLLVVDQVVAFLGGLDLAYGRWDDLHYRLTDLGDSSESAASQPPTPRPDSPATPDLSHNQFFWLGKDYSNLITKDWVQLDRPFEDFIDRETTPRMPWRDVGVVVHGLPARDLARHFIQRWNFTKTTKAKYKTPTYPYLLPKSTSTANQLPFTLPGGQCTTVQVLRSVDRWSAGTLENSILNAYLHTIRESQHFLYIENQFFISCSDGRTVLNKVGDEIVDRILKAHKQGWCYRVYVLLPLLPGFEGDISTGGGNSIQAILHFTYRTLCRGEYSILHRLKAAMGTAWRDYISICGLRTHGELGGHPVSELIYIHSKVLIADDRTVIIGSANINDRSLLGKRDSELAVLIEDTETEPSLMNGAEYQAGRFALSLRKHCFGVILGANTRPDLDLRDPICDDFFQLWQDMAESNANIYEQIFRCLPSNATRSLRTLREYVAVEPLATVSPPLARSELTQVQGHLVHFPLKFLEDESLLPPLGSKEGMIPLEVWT
Test: Evaluation of human PLD2 enzyme inhibitory activity (Amplex Red / choline oxidase fluorescence)
Format: biochemical
Settings: full-length human PLD2 enzyme; read-out: PLD2 IC50
Recorded pIC50 values for a group of molecules are listed next.
pIC50 is a log-scale quantity: -log10 of the concentration expressed in molar.

Previously resolved entries follow.
# SMILES CODE, pIC50
records = [
    ("C[C@@H](C[C@H]1CC[C@]2(CC1)OC(=O)NN=C2c1ccc(S(C)(=O)=O)cc1Cl)NC(=O)c1cc2cc(F)ccc2o1", 7.74),
    ("Cc1cnc(C(=O)N[C@@H](C)C[C@H]2CC[C@]3(CC2)OC(=O)NN=C3c2ccc(F)cc2Br)cn1", 6.49),
    ("Cc1cc(F)ccc1C1=NNC(=O)O[C@]12CC[C@@H](C[C@H](C)NC(=O)c1ccc(Cl)cn1)CC2", 7.43),
]

Briefly, pIC50 measured for CNC(=O)C(=O)N[C@@H](C)C[C@H]1CC[C@]2(CC1)OC(=O)NN=C2c1ccnn1C : 5.33

Noted for C[C@@H](C[C@H]1CC[C@]2(CC1)OC(=O)NN=C2c1ccc(F)cc1I)NC(=O)NC1CC1 : its pIC50 reads 6.97

---

Target: full-length human PLD1 (Homo sapiens (Human), UniProt Q13393)
Sequence (Q13393 other isoform, or with tags, fused parts or gaps): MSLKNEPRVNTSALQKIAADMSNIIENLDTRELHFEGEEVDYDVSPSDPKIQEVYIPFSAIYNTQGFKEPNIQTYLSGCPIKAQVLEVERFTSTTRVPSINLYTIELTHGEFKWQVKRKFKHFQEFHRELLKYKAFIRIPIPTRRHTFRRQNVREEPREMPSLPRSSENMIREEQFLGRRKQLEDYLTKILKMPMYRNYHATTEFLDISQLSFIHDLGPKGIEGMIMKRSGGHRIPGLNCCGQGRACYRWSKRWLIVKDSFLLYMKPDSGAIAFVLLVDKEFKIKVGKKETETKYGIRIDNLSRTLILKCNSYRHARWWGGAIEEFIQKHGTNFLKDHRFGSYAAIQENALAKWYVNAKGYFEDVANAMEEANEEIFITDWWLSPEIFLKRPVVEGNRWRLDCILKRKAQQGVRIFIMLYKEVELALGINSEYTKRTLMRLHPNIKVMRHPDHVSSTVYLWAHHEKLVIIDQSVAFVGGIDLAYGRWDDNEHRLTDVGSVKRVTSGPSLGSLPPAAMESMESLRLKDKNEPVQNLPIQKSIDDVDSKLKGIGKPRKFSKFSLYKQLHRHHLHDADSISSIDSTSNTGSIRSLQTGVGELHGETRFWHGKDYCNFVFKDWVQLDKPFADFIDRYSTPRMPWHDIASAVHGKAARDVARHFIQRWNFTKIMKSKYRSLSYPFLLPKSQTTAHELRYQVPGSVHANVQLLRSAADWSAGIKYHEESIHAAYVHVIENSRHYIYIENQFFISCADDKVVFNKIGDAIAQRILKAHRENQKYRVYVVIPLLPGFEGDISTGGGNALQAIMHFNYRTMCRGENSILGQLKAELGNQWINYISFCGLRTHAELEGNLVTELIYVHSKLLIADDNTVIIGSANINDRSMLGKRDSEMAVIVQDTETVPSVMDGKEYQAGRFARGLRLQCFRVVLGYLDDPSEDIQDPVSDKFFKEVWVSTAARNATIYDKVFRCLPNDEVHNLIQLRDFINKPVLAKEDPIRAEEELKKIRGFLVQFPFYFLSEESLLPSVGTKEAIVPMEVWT
Assay: Evaluation of human PLD1 enzyme inhibitory activity (Amplex Red / choline oxidase fluorescence)
Type: biochemical
Conditions: full-length human PLD1 enzyme; read-out: PLD1 IC50
Hi! Just check whether IC50 is below 30 nM. Below gives satisfied, equal or above gives not satisfied.

Some solved cases for reference:
# COMPOUND, CLASS
measured = [
    ("C[C@@H](CN1CCC2(CC1)OC(=O)NN=C2c1ccc(F)cc1Cl)NC(=O)c1cc(Cl)no1 [Example 92]", "satisfied"),
    ("C[C@@H](C[C@H]1CC[C@]2(CC1)OC(=O)NN=C2c1cc(C#N)ccc1Br)NC(=O)c1ccn(C)n1 [Example 2-070]", "not satisfied"),
    ("CNC(=O)/C=C\\C(=O)N[C@@H](C)CN1CCC2(CC1)OC(=O)NN=C2c1cc(C#N)ccc1Br [Example 2-063]", "not satisfied"),
    ("CNC(=O)C(=O)N[C@@H](C)C[C@H]1CC[C@]2(CC1)OC(=O)NN=C2c1cccc(C#N)c1Br [Example 315]", "satisfied"),
    ("CNC(=O)C(=O)N[C@@H](C)C[C@H]1CC[C@]2(CC1)OC(=O)NN=C2c1cc(C)ccc1C [Example 126]", "satisfied"),
]

Lab note: confirm whether the reported IC50 for this compound is below 30 nM, equality not counting. compound: CNC(=O)C(=O)N[C@@H](C)C[C@H]1CC[C@]2(CC1)OC(=O)NN=C2c1ccc(F)cc1C [Example 55]
satisfied

In the record for CNC(=O)C(=O)N[C@@H](C)C[C@H]1CC[C@]2(CC1)OC(=O)NN=C2c1ccc(F)cc1CCC(F)(F)F [Example 135] , is IC50 less than 30 nM?
not satisfied

---

Target: full-length human PLD2 (Homo sapiens (Human))
Test: Evaluation of human PLD2 enzyme inhibitory activity (Amplex Red / choline oxidase fluorescence)
Format: biochemical
Details: full-length human PLD2 enzyme; read-out: PLD2 IC50
ASSAY READOUT: IC50 (nM)
Form entry: value (nM) — number only.

Some entries whose results are on file:
# SMILES CODE, SUBJECT OF TEST, IC50, nM
data = [
    ("C[C@@H](C[C@H]1CC[C@]2(CC1)OC(=O)NN=C2c1ccc(F)cc1Br)NC(=O)CC#N", "full-length human PLD2 (Homo sapiens (Human))", 500),
    ("C[C@H](NC(=O)c1cnn(C)c1)[C@H](C)[C@H]1CC[C@]2(CC1)OC(=O)NN=C2c1cc(C#N)ccc1Br", "full-length human PLD2 (Homo sapiens (Human))", 10),
    ("CNC(=O)C(=O)N[C@@H](C)C[C@H]1CC[C@]2(CC1)OC(=O)NN=C2c1cnc(C(C)=O)cc1C", "full-length human PLD2 (Homo sapiens (Human))", 46),
]

Please examine the following record next.
So, Cc1cc(Br)ccc1C1=NNC(=O)O[C@]12CC[C@@H](C[C@H](C)NC(=O)C(=O)NC1CC1)CC2 ? Its IC50 was 18
